Provenance of the data: patent US7163940B2

Tested on: HSV-1
protocolDescription: HSV-1 replication in infected Vero 76 cells, viral DNA hybridization capture assay
Assay type: cell-based
conditionDetails: Human alphaherpesvirus 1, Vero 76, HSV-1, Vero 76 cells, MOI=0.001, 40–48 hours incubation
quantityMeasured: IC50 (nM)

// known answers, use as guide
-- ask State, in one line, measured IC50 of CCCCNc1nccc(-c2c(-c3ccc(F)cc3)nn3c(N(C)C)cccc23)n1
-- reply 300

-- ask State, in one line, measured IC50 of CCCCNc1cccc2c(-c3ccnc(NC4CC4)n3)c(-c3ccc(F)cc3)nn12
-- reply 600

(P) CN1CCCC1CCNc1cccc2c(-c3ccncc3)c(-c3ccc(F)cc3)nn12 (stereo not shown)
(Q) Fc1ccc(-c2nn3c(NC4CCCC4)cccc3c2-c2ccnc(NCCCN3CCOCC3)n2)cc1
-- ask Please state the entry with greater IC50 among P and Q . State your choice using its label.
-- reply Q
(Q: 6000 nM, P: 700 nM)
